Source of measurements: patent US11524938B2

Biological target: human P2X4 (Homo sapiens)
Sequence (Q99571 whole entry): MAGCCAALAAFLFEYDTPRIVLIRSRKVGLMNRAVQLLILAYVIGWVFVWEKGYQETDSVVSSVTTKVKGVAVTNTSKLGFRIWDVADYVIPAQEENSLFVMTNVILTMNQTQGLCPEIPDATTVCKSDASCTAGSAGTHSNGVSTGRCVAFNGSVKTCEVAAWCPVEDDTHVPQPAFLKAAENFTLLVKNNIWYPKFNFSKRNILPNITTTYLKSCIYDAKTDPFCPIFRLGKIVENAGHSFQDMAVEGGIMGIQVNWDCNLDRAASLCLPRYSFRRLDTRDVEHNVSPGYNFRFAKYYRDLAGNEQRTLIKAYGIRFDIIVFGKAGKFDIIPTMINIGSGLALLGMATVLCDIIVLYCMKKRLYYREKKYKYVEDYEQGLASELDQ
Assay: Human P2X4 HEK Cell FLIPR Assay
Details: HEK293 cells, agonist Bz-ATP at EC80; individual values listed where some fall outside detection range
test_readout: IC50 (nM)

As a guide, the following entries are already answered.
- NS(=O)(=O)c1cc(NC(=O)Cc2cccc(F)c2F)ccc1-n1cc(C(F)(F)F)cn1 [Example 122]: 266
- NS(=O)(=O)c1cc(NC(=O)Cc2ccccc2F)ccc1-c1cnn(C2CCCC2)c1 [Example 348]: 47
- Cc1ncn(-c2ccc(NC(=O)Cc3ccccc3Cl)cc2S(N)(=O)=O)n1 [Example 5]: 249

(P) NS(=O)(=O)c1cc(NC(=O)Cc2ccccc2F)ccc1-c1cncc(C(F)(F)F)c1 [Example 221]
(Q) NS(=O)(=O)c1cc(NC(=O)Cc2cccc(C(F)(F)F)c2Cl)ccc1-n1cc(F)cn1 [Example 162]
(R) COc1ccc(Cl)cc1CC(=O)Nc1ccc(-n2cc(C#N)cn2)c(S(N)(=O)=O)c1 [Example 212]
(S) NS(=O)(=O)c1cc(NC(=O)Cc2ccc(Cl)cc2Cl)ccc1-n1cc(C(F)(F)F)cn1 [Example 111]
Highest IC50 first, then in falling order down to the smallest. The response must list the labels following the requested ordering.
S, R, P, Q
